- Procedure details: Plasma drug concentrations and pharmacokinetics after a single subcutaneous injection of SP peptide or SIPI-D00 peptide in SD rats
- Format: in vivo
- Experimental context: rat, in vivo, sc, 5 mg/kg
Square brackets hold non-standard residues; d marks the D form. Peptide text beside a SMILES is read from it.
Reported endpoint: half-life

Q: Recorded half-life of C[C@H](O)[C@@H](NC(=O)[C@@H](Cc1ccc(O)cc1)NC(=O)[C@H](NC(=O)[C@@H](CO)NC(=O)CN)[C@H](C)O)C(=O)N[C@H](CCC(N)=O)C(=O)NCC(=O)O [SIPI-D00, GSTYTQG] (H-G[dS][dT][dY][dT][dQ]G-OH) , please.
Result: 1.5 h

// data source = patent US20230203095A1
